System Tested: Catechol O-methyltransferase (Homo sapiens) (UniProt P21964)
Sequence (P21964 whole entry, looked up): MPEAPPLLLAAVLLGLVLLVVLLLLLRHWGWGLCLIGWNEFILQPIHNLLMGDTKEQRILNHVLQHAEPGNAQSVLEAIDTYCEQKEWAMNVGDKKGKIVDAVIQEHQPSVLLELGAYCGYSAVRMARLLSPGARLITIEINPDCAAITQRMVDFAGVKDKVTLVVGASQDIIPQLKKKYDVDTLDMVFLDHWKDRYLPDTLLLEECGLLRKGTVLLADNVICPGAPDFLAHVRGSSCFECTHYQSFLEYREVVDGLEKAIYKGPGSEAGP
Protocol Notes: Primary Screen for Target Class Profiling of Small Molecule Inhibitors of Methyltransferases; also: % is scaled to controls: 0 for no effect and ±100 for the full control effect
Condition Summary: purified enzyme, MTase-Glo SAH luminescence; at 40 µM, active compounds read low
In all, about 25,000 compounds went through this assay and about 970 (3.9%) were called active. Another 8% or so got no clear call; they are omitted. Only a selection was taken, and actives are over-represented in it overall.
Observable: activity change, negative = inhibition (%)
Only the number, expressed in %, is required.

Q: Which activity change, negative = inhibition reading was recorded for the compound C[C@]12CCC[C@](C)(C(=O)O)C1[C@@H](O)[C@@H](O)C13CC(CCC12)C(CO)(O[C@@H]1O[C@H](CO)[C@@H](O)[C@H](O)[C@H]1O)C3 (some centres undefined) ?
Result: -23

Q: What activity change, negative = inhibition value was documented for this compound, CCC(C)C(=O)OC1C(C)C2(O)C(C=C(CO)CC3(O)C(=O)C(C)=CC32)C2C(C)(C)C12OC(=O)C(C)C (centres undefined) ?
Result: -2.75

Q: Give its activity change, negative = inhibition value. Item: CCCS(=O)(=O)NCC1Cn2cccc2C(=O)N1CCOC (centres undefined)
Result: 2.41

Q: Which activity change, negative = inhibition is listed for COc1ccc(C(=O)N2CCC3(CC2)CCC(O)(CN(C)C)CC3)cc1OC ?
Result: 2.82

Q: For O=C(NCc1ccc(Cl)cc1)c1cc(-c2ccc[nH]2)n[nH]1 , what is its reported activity change, negative = inhibition?
Result: -7.05

Q: Quick one: activity change, negative = inhibition of CCCN1C(=O)c2cc3sccc3n2CC1(C)C(=O)NC1CCC(C)CC1 (centres undefined) ?
Result: 0.545

Q: Which value of activity change, negative = inhibition has been reported for COc1ccc(NC(=O)CSc2nnc3n(CCCOC(C)C)c(=O)c4ccccc4n23)cc1 in the records?
Result: 6.36

Q: Which value of activity change, negative = inhibition has been reported for Cc1ccc(N2C(=O)c3cc(-c4ccco4)nn3CC2(C)C(=O)NC2CCCCC2)cc1Cl (centres undefined) in the records?
Result: -4.47

Q: Bench note: what activity change, negative = inhibition did NCCCC(=O)N1CCN(C2CCNCC2)C(=O)C1 show?
Result: -0.26

---

Give measured activity change, negative = inhibition for each item. Keep answers brief.
System Tested: Catechol O-methyltransferase (Homo sapiens) (UniProt P21964)
Protocol Notes: Primary Screen for Target Class Profiling of Small Molecule Inhibitors of Methyltransferases; also: % is scaled to controls: 0 for no effect and ±100 for the full control effect
Condition Summary: purified enzyme, MTase-Glo SAH luminescence; at 40 µM, active compounds read low
Protocol: PI: Matthew D. Hall Ph.D. and Quinlin M. Hanson Ph.D. National Center for Advancing Translational Sciences (NCATS) National Institute of Health (NIH), Rockville, MD […] High-through put screening assays were developed at the National Center for Advancing Translational Science (NCATS) for the enzymes NNMT, PNMT, HNMT, GNMT, COMT, and GAMT. Enzymatic activity was measured as a function of SAM cofactor conversion using the MTase Glo kit (Promega) for all enzymes. […]
About 970 (3.9%) of roughly 25,000 compounds were called active. About 8% were inconclusive and are not listed. The sample holds actives, similar compounds and a random draw of the others, so the mix is not that of the screen.
The answer is to be given in %; state only the numeric part.

Q: Field: activity change, negative = inhibition (Catechol O-methyltransferase (Homo sapiens) (UniProt P21964)). Entry: COc1ccccc1CN[C@H]1[C@H](O)[C@@H](N2CCN(c3ccccc3OC)CC2)[C@@H]2OC[C@H]1O2
Result: 1.34

Q: Value wanted: activity change, negative = inhibition (Catechol O-methyltransferase (Homo sapiens) (UniProt P21964)) of entry C=C1C(=O)O[C@@H]2C[C@@]3(C)CCCC(=C)[C@]3(O)C[C@H]12
Result: 6.75

Q: Entry CCOC(=O)c1cc2n(n1)CC(C)(C(=O)NC1CCCC1)N(c1ccc(C)cc1)C2=O (centres undefined) , system Catechol O-methyltransferase (Homo sapiens) (UniProt P21964): what activity change, negative = inhibition was measured?
Result: 2.4

Q: Could you share what activity change, negative = inhibition was measured for Cc1ccccc1CN1C(=O)c2cc(-c3cccs3)nn2CC1(C)C(=O)NC1CCCCC1 (centres undefined) , tested on Catechol O-methyltransferase (Homo sapiens) (UniProt P21964)?
Result: 0.113

Q: Hi! What's the reported activity change, negative = inhibition for COc1ccc(CN2C(=O)c3ccc(-c4ccco4)n3CC2(C)C(=O)NC2CCCCCC2)cc1 (centres undefined) on Catechol O-methyltransferase (Homo sapiens) (UniProt P21964)?
Result: -2.99

Q: Lab note: need activity change, negative = inhibition with Catechol O-methyltransferase (Homo sapiens) (UniProt P21964) for entry Cc1ccc(C(=O)COC(=O)C(Cc2c[nH]c3ccccc23)NC(=O)c2ccc(Br)cc2)cc1 (centres undefined) , please look it up.
Result: 9.4

Q: Find activity change, negative = inhibition (Catechol O-methyltransferase (Homo sapiens) (UniProt P21964)) for the entry CC1=C[C@@H](CNS(=O)(=O)c2cccc(C#N)c2)[C@H](C(C)C)C[C@H]1CC(=O)N(C)Cc1cccnc1
Result: -5.31

Q: Short answer please: activity change, negative = inhibition, Catechol O-methyltransferase (Homo sapiens) (UniProt P21964), entry CN1CCCN(S(=O)(=O)c2cccs2)c2ccccc21
Result: -6.9

Q: Give activity change, negative = inhibition (Catechol O-methyltransferase (Homo sapiens) (UniProt P21964)) of the following compound: Cc1cc2c(F)c(Oc3ncnn4cc(OCC(C)O)c(C)c34)ccc2[nH]1 (centres undefined)
Result: 3.68
